Would you mind telling me the reported IC50 of each entry?
Tested on: 926638-142-R-J1-PDC complex spheroid viability
Experiment: Anticancer human tumor 926638-142-R-J1-PDC patient-derived endometrial carcinoma cell line growth inhibition [POLQ]
Details: curve of first compound; second compound 10 µM
Experimental: Multicellular complex tumor spheroid response to Polymerase (POL) inhibitors (novobiocin, ART-558, RP6685) in combination with a variety of drugs and investigational agents in selected tumor cell lines The POL inhibitors (novobiocin, ART-558, and RP6685) were evaluated both individually and in combination with standard of care and investigational anticancer small molecules within a complex spheroid model of solid tumors. . […]
Give bare numbers, in µM.

Example cases with answers are listed next.
[[record]]
compound = "COc1ccc([C@@H](O)c2cc(-c3ncnc4cc(N5CCOCC5)ccc34)c(F)cc2Cl)nn1 + COC1C(OC(N)=O)C(O)C(Oc2ccc3c(O)c(NC(=O)c4ccc(O)c(CC=C(C)C)c4)c(=O)oc3c2C)OC1(C)C"
assay_metric = "IC50"
unit_name = "µM"
observed_result = 0.468

[[record]]
compound = "Nc1ccn(C2OC(CO)C(O)C2(F)F)c(=O)n1 (stereo not given) + Cc1cccc(N(C)C(=O)C2C(O)CCN2c2nc(C)cc(C(F)(F)F)c2C#N)c1"
assay_metric = "IC50"
unit_name = "µM"
observed_result = 0.535


Turning to the following compound.
Incoming: Suppose we examine the compound CC1COCCN1c1cc(C2(O)CC3CCC(C2)O3)c2cnn(-c3ccn[nH]3)c2n1 (stereo not given) + COC1C(OC(N)=O)C(O)C(Oc2ccc3c(O)c(NC(=O)c4ccc(O)c(CC=C(C)C)c4)c(=O)oc3c2C)OC1(C)C ; what IC50 value has been reported?
Outgoing: 0.181

###

system: 926638-142-R-J1-PDC complex spheroid viability; experiment: Anticancer human tumor 926638-142-R-J1-PDC cell line growth inhibition [POLQ]; conditions: second compound 0.1 µM; first compound 3.16 µM; stronger effect = lower value;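 further: spheroids exposed to drugs for one week before readout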;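 on viability, T/C: percent viability relative to DMSO vehicle control wells set as 100%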
Would you mind telling me the reported viability, T/C of each entry?
One number for each entry, in %.

Example cases with answers are listed next.
[[record]]
molecule = "CNCc1ccc(-c2[nH]c3cc(F)cc4c3c2CCNC4=O)cc1 + Cc1cccc(N(C)C(=O)C2C(O)CCN2c2nc(C)cc(C(F)(F)F)c2C#N)c1"
unit_name = "%"
observed_result = 75.6

[[record]]
molecule = "O=C(Nc1ccc(O)c(NS(=O)(=O)c2ccc(F)cc2)c1)c1ccc(-c2ccccc2)cc1 + Cc1cccc(N(C)C(=O)C2C(O)CCN2c2nc(C)cc(C(F)(F)F)c2C#N)c1"
unit_name = "%"
observed_result = 90.1


Incoming: Requested read-out viability, T/C, target or system 926638-142-R-J1-PDC complex spheroid viability, entry O=c1[nH]cc(F)c(=O)[nH]1 + Nc1ccc(C#CCN(C(=O)Cc2ncc(C(F)(F)F)cc2C(F)(F)F)c2ccc(F)cc2)nn1
Outgoing: 90.8

###

Test system: 926638-142-R-J1-PDC complex spheroid viability
Experiment: Anticancer human tumor 926638-142-R-J1-PDC cell line growth inhibition [POLQ];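 further: spheroids exposed to drugs for one week before readout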
Conditions: curve of first compound; second compound 0.1 µM
Procedure: Multicellular complex tumor spheroid response to Polymerase (POL) inhibitors (novobiocin, ART-558, RP6685) in combination with a variety of drugs and investigational agents in selected tumor cell lines The POL inhibitors (novobiocin, ART-558, and RP6685) were evaluated both individually and in combination with standard of care and investigational anticancer small molecules within a complex spheroid model of solid tumors. . […]
Strictly below 200 nM in IC50: condition met. Otherwise: condition not met.

Solved cases below.
[[record]]
molecule = "CCc1c2c(nc3ccc(O)cc13)-c1cc3c(c(=O)n1C2)COC(=O)[C@]3(O)CC + Nc1ccc(C#CCN(C(=O)Cc2ncc(C(F)(F)F)cc2C(F)(F)F)c2ccc(F)cc2)nn1"
group = "condition met"

[[record]]
molecule = "CC(=O)O[C@H]1C(=O)[C@@]2(C)[C@H]([C@H](OC(=O)c3ccccc3)[C@]3(O)C[C@H](OC(=O)[C@H](O)[C@@H](NC(=O)c4ccccc4)c4ccccc4)C(C)=C1C3(C)C)[C@]1(OC(C)=O)CO[C@@H]1C[C@@H]2O + Nc1ccc(C#CCN(C(=O)Cc2ncc(C(F)(F)F)cc2C(F)(F)F)c2ccc(F)cc2)nn1"
group = "condition not met"


Incoming: Quick check: does COc1cccc2c1C(=O)c1c(O)c3c(c(O)c1C2=O)CC(O)(C(=O)CO)CC3OC1CC(N)C(O)C(C)O1 (stereo not given) + COC1C(OC(N)=O)C(O)C(Oc2ccc3c(O)c(NC(=O)c4ccc(O)c(CC=C(C)C)c4)c(=O)oc3c2C)OC1(C)C have IC50 under 200 nM?
Outgoing: condition met

Incoming: // next record COc1ccc([C@@H](O)c2cc(-c3ncnc4cc(N5CCOCC5)ccc34)c(F)cc2Cl)nn1 + COC1C(OC(N)=O)C(O)C(Oc2ccc3c(O)c(NC(=O)c4ccc(O)c(CC=C(C)C)c4)c(=O)oc3c2C)OC1(C)C
Outgoing: condition not met

###

test system: 926638-142-R-J1-PDC complex spheroid viability; assay: Anticancer human tumor 926638-142-R-J1-PDC cell line growth inhibition [POLQ]; conditions: second compound 3.16 µM; first compound 0.0316 µM; stronger effect = lower value;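 further: spheroids exposed to drugs for one week before readout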;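 on viability, T/C: percent viability relative to DMSO vehicle control wells set as 100%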
Would you mind telling me the reported viability, T/C of each entry?
Give bare numbers, in %.

Example cases with answers are listed next.
[[record]]
compound = "COc1cccc2c1C(=O)c1c(O)c3c(c(O)c1C2=O)CC(O)(C(=O)CO)CC3OC1CC(N)C(O)C(C)O1 (stereo not drawn) + Cc1cccc(N(C)C(=O)C2C(O)CCN2c2nc(C)cc(C(F)(F)F)c2C#N)c1"
unit_name = "%"
observed_result = 82.1

[[record]]
compound = "O=C(c1cc(Cc2n[nH]c(=O)c3ccccc23)ccc1F)N1CCN(C(=O)C2CC2)CC1 + COC1C(OC(N)=O)C(O)C(Oc2ccc3c(O)c(NC(=O)c4ccc(O)c(CC=C(C)C)c4)c(=O)oc3c2C)OC1(C)C"
unit_name = "%"
observed_result = 98.2


Turning to the following compound.
Incoming: Requested read-out viability, T/C, target or system 926638-142-R-J1-PDC complex spheroid viability, entry CC[C@@]1(O)C(=O)OCc2c1cc1n(c2=O)Cc2cc3c(CN(C)C)c(O)ccc3nc2-1 + Cc1cccc(N(C)C(=O)C2C(O)CCN2c2nc(C)cc(C(F)(F)F)c2C#N)c1
Outgoing: 61.2

###

tested on: 926638-142-R-J1-PDC complex spheroid viability; assay: Anticancer human tumor 926638-142-R-J1-PDC cell line growth inhibition [POLQ]; conditions: curve of first compound; second compound 10 µM;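 further: spheroids exposed to drugs for one week before readout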
Assay metric: IC50 (µM)
Numbers only, in µM.

Example cases with answers are listed next.
[[record]]
molecule = "CC1COCCN1c1cc(C2(O)CC3CCC(C2)O3)c2cnn(-c3ccn[nH]3)c2n1 (stereo not given) + Cc1cccc(N(C)C(=O)C2C(O)CCN2c2nc(C)cc(C(F)(F)F)c2C#N)c1"
observed_result = 0.198

[[record]]
molecule = "CCc1cc2c(N3CCc4c(cc(Cn5ccnc5)cc4-c4cn(C)nc4C(F)(F)F)C3=O)ccnc2c(OC)n1 + Cc1cccc(N(C)C(=O)C2C(O)CCN2c2nc(C)cc(C(F)(F)F)c2C#N)c1"
observed_result = 0.379

[[record]]
molecule = "CC(=O)O[C@H]1C(=O)[C@@]2(C)[C@H]([C@H](OC(=O)c3ccccc3)[C@]3(O)C[C@H](OC(=O)[C@H](O)[C@@H](NC(=O)c4ccccc4)c4ccccc4)C(C)=C1C3(C)C)[C@]1(OC(C)=O)CO[C@@H]1C[C@@H]2O + Nc1ccc(C#CCN(C(=O)Cc2ncc(C(F)(F)F)cc2C(F)(F)F)c2ccc(F)cc2)nn1"
observed_result = 0.139


State the recorded IC50 for every item in the following list.
1. CC(C)n1c(=O)n(C)c2cnc3cc(F)c(-c4ccc(OCCCN5CCCCC5)nc4)cc3c21 + Cc1cccc(N(C)C(=O)C2C(O)CCN2c2nc(C)cc(C(F)(F)F)c2C#N)c1
2. CC1COCCN1c1cc(-c2ccnn2C)c2ccnc(-c3ccn[nH]3)c2n1 (stereo not given) + COC1C(OC(N)=O)C(O)C(Oc2ccc3c(O)c(NC(=O)c4ccc(O)c(CC=C(C)C)c4)c(=O)oc3c2C)OC1(C)C
3. CC1COCCN1c1cc(C2(S(C)(=N)=O)CC2)nc(-c2ccnc3[nH]ccc23)n1 (stereo not given) + COC1C(OC(N)=O)C(O)C(Oc2ccc3c(O)c(NC(=O)c4ccc(O)c(CC=C(C)C)c4)c(=O)oc3c2C)OC1(C)C
4. CCCS(=O)(=O)Nc1ccc(F)c(C(=O)c2c[nH]c3ncc(-c4ccc(Cl)cc4)cc23)c1F + COC1C(OC(N)=O)C(O)C(Oc2ccc3c(O)c(NC(=O)c4ccc(O)c(CC=C(C)C)c4)c(=O)oc3c2C)OC1(C)C
5. CC1COCCN1c1cc(C2(S(C)(=N)=O)CC2)nc(-c2ccnc3[nH]ccc23)n1 (stereo not given) + Nc1ccc(C#CCN(C(=O)Cc2ncc(C(F)(F)F)cc2C(F)(F)F)c2ccc(F)cc2)nn1

Outgoing:
1. 9.83
2. 0.558
3. 5.68
4. 9.92
5. 5.63
